Cited source: patent US7585859B2

- system: PDE4B: The catalytic domain of human PDE4B from S152-S528 (Homo sapiens)
- Construct: His6 (N); thrombin cleavage site (N); made in house; host or cells: E. coli
- Sequence (Q07343 with tags, fused parts or gaps): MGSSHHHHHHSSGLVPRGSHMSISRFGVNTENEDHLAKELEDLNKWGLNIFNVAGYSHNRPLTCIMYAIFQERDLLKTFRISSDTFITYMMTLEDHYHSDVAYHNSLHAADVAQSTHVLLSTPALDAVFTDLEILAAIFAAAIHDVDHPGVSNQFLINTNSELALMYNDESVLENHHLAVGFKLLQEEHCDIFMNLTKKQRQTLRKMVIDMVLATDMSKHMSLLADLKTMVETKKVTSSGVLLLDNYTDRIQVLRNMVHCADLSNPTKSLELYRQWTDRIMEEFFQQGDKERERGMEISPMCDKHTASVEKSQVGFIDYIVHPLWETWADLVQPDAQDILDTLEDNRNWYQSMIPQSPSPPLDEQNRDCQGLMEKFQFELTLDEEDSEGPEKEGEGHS
- assay-remarks: PDE4 IC50 determination by Scintillation Proximity Assay, PDE4B
- Assay type: biochemical
- particulars: Table 1B, Formula I compounds; read-out: IC50 PDE4B
Please provide measured IC50 for the entries that follow.

Supply IC50 value. Item: COc1ccc(OC)c(C(=O)c2sc(NCCN3CCCCC3)c(C#N)c2N)c1
> 10 µM

Provide one value: measured IC50 of COC(=O)C(CCSC)Nc1sc(C(=O)c2c(-c3ccccc3)noc2C)c(N)c1C#N (stereo not drawn)
< 10 µM

Could you please provide reported IC50 for N#Cc1c(Nc2ccc(OC(F)F)cc2)sc(C(=O)c2ccccc2)c1N ? Thanks!
< 10 µM

Report IC50 for N#Cc1c(NCCN2CCCCC2)sc(C(=O)c2cc(-c3ccc(Cl)c(Cl)c3)no2)c1N
> 10 µM

Return IC50 for the following compound: CC(C)CNc1sc(C(=O)c2ccc(Oc3ccccc3)cc2)c(N)c1C#N
< 10 µM

Specify measured IC50 for N#Cc1c(NCc2ccccc2)sc(C(=O)c2cc(-c3ccccc3)no2)c1N .
< 10 µM

Check the records and state IC50 for Cc1c(C(=O)c2sc(NCCN3CCCCC3)c(C#N)c2N)cnn1-c1ccccc1
< 10 µM

Identify IC50 associated with the compound COC(=O)C(CC(C)C)Nc1sc(C(=O)c2ccccc2Cl)c(N)c1C#N (stereo not drawn)
< 10 µM

Output IC50 of N#Cc1c(NC2CCCC2)sc(C(=O)c2cc(-c3ccc(F)cc3)no2)c1N
< 10 µM

Recall and state the measured IC50 for CCC(C)Nc1sc(C(=O)c2cc(-c3ccccc3)no2)c(N)c1C#N (stereo not drawn) .
< 10 µM

# return recorded IC50 for input COc1ccc(C(=O)c2sc(NC3CCCC3)c(C#N)c2N)c(OC)c1
< 10 µM

Identify measured IC50 associated with N#Cc1c(NC2CCOC2=O)sc(C(=O)c2ccccc2Cl)c1N (stereo not drawn)
> 10 µM

----------
- system: PDE4B: The catalytic domain of human PDE4B from S152-S528 (Homo sapiens)
- Construct: His6 (N); thrombin cleavage site (N); made in house; host or cells: E. coli
- assay-remarks: PDE4 IC50 determination by Scintillation Proximity Assay, PDE4B
- Assay type: biochemical
- particulars: Table 1B, Formula I compounds; read-out: IC50 PDE4B
pIC50: −log10 of the molar value.
I'd appreciate it if you could supply pIC50 values for the items below.

Write down pIC50 measured for item COc1ccc(C(=O)c2sc(Nc3ccc(C(=O)NC4CCOC4=O)cc3)c(C#N)c2N)c(OC)c1 (stereo not drawn)
< 5.00

Give the reported pIC50 for this compound. N#Cc1c(NC2CCCC2)sc(C(=O)c2cc(-c3ccc([N+](=O)[O-])cc3)no2)c1N
> 5.00

Provide pIC50 value for the following compound: NC(=O)c1sc(Nc2ccccc2)c(-c2nc3ccccc3[nH]2)c1N
> 5.00

----------
Can you tell me IC50 for the items I'm about to list?
- system: PDE4B: The catalytic domain of human PDE4B from S152-S528 (Homo sapiens)
- Construct: His6 (N); thrombin cleavage site (N); made in house; host or cells: E. coli
- assay-remarks: PDE4 IC50 determination by Scintillation Proximity Assay, PDE4B
- Type: biochemical
- particulars: Table 3A, Formula III compounds; read-out: IC50 PDE4B
- Description: IC50s were determined by Scintillation Proximity Assay (SPA). The principle of the assay is based on the fact that cAMP, the PDE4 substrate, binds weakly to Yittrium Silicate SPA beads, whereas AMP, the product of PDE4 hydrolysis binds strongly. Thus, the extent of PDE4 hydrolysis of a sample of [^3H]cAMP can be measured because only the [^3H]AMP produced by PDE4 hydrolysis will bind to the SPA beads and produce a scintillation signal. PDE4 enzymes used for IC50 assays were: […]

Provide IC50 value for the following compound: Cc1ccc2cccnc2c1NS(=O)(=O)c1ccc(S(=O)(=O)c2ccccc2)s1
> 10 µM

Tell me IC50 reported for COc1ccc(NS(=O)(=O)c2ccc(-c3ccnc(SC)n3)s2)c2ncccc12
< 10 µM

Give me measured IC50, please, for this compound: COc1cc(NS(=O)(=O)c2cccs2)c2ncccc2c1
> 10 µM
